- System: Haemophilus influenzae
- Assay Protocol: Antimicrobial activity against Haemophilus influenzae isolate by broth microdilution method
- Type: functional

Molecule: N[C@@H](C(=O)N[C@@H]1C(=O)N2C(C(=O)O)=C(Cl)CS[C@H]12)c1ccccc1 [CEFACLOR ANHYDROUS]
Endpoint Unit: µg/mL
MIC50: 8

Molecule: CC1(C)S[C@@H]2[C@H](NC(=O)[C@H](N)c3ccccc3)C(=O)N2[C@H]1C(=O)O
Endpoint Unit: µg/mL
MIC50: 16

Molecule: CO/N=C(\C(=O)N[C@@H]1C(=O)N2C(C(=O)O)=C(COC(C)=O)CS[C@H]12)c1csc(N)n1
Endpoint Unit: µg/mL
MIC50: 0.063

----------
- Test system: Haemophilus influenzae
- Assay Protocol: Antimicrobial activity against Haemophilus influenzae isolate by broth microdilution method
- Format: functional
Assay Metric: MIC90

Compound: N[C@@H](C(=O)N[C@@H]1C(=O)N2C(C(=O)O)=C(Cl)CS[C@H]12)c1ccccc1 [CEFACLOR ANHYDROUS]
Value Measured: 32 µg/mL

Compound: CO/N=C(\C(=O)N[C@@H]1C(=O)N2C(C(=O)O)=C(COC(C)=O)CS[C@H]12)c1csc(N)n1 [CEFOTAXIME]
Value Measured: 0.125 µg/mL

Compound: CC1(C)S[C@@H]2[C@H](NC(=O)[C@H](N)c3ccccc3)C(=O)N2[C@H]1C(=O)O [AMPICILLIN]
Value Measured: 256 µg/mL

Compound: O=C(N[C@H](CO)[C@H](O)c1ccc([N+](=O)[O-])cc1)C(Cl)Cl [CHLORAMPHENICOL]
Value Measured: 1 µg/mL

----------
- Tested on: Haemophilus influenzae
- Assay Protocol: Antimicrobial activity against Beta-lactamase-positive, ampicillin-cluvulanate-resistant Haemophilus influenzae by broth microdilution method
- Assay type: functional
Assay Metric: log10 MIC90 (log10 of the value in µg/mL)

Compound: CO/N=C(\C(=O)N[C@@H]1C(=O)N2C(C(=O)O)=C(COC(N)=O)CS[C@H]12)c1ccco1 [CEFUROXIME]
Study Target: Haemophilus influenzae
log10 MIC90: 1.51
--
Compound: N[C@@H](C(=O)N[C@@H]1C(=O)N2C(C(=O)O)=C(Cl)CS[C@H]12)c1ccccc1 [CEFACLOR ANHYDROUS]
Study Target: Haemophilus influenzae
log10 MIC90: 1.81
--
Compound: CO/N=C(\C(=O)N[C@@H]1C(=O)N2C(C(=O)O)=C(COC(C)=O)CS[C@H]12)c1csc(N)n1 [CEFOTAXIME]
Study Target: Haemophilus influenzae
log10 MIC90: 0.00
--
Compound: O=C(N[C@H](CO)[C@H](O)c1ccc([N+](=O)[O-])cc1)C(Cl)Cl [CHLORAMPHENICOL]
Study Target: Haemophilus influenzae
log10 MIC90: 0.90
--
Compound: C[C@H]1COc2c(N3CCN(C)CC3)c(F)cc3c(=O)c(C(=O)O)cn1c23.C[C@H]1COc2c(N3CCN(C)CC3)c(F)cc3c(=O)c(C(=O)O)cn1c23.O [LEVOFLOXACIN]
Study Target: Haemophilus influenzae
log10 MIC90: -1.51
--
Compound: CC[C@H]1OC(=O)[C@H](C)[C@@H](O[C@H]2C[C@@](C)(OC)[C@@H](O)[C@H](C)O2)[C@H](C)[C@@H](O[C@@H]2O[C@H](C)C[C@H](N(C)C)[C@H]2O)[C@](C)(OC)C[C@@H](C)C(=O)[C@H](C)[C@@H](O)[C@]1(C)O [CLARITHROMYCIN]
Study Target: Haemophilus influenzae
log10 MIC90: 1.20

----------
- Test system: Haemophilus influenzae
- Assay Protocol: Antimicrobial activity against Haemophilus influenzae isolate by broth microdilution method
- Assay type: functional
Assay Metric: MIC90 (µg/mL)

Compound: CC[C@H]1OC(=O)[C@H](C)[C@@H](O[C@H]2C[C@@](C)(OC)[C@@H](O)[C@H](C)O2)[C@H](C)[C@@H](O[C@@H]2O[C@H](C)C[C@H](N(C)C)[C@H]2O)[C@](C)(OC)C[C@@H](C)C(=O)[C@H](C)[C@@H](O)[C@]1(C)O [CLARITHROMYCIN]
Assay Metric: MIC90
Value Measured: 16
//
Compound: C[C@H]1COc2c(N3CCN(C)CC3)c(F)cc3c(=O)c(C(=O)O)cn1c23.C[C@H]1COc2c(N3CCN(C)CC3)c(F)cc3c(=O)c(C(=O)O)cn1c23.O [LEVOFLOXACIN]
Assay Metric: MIC90
Value Measured: 0.031
//
Compound: CO/N=C(\C(=O)N[C@@H]1C(=O)N2C(C(=O)O)=C(COC(N)=O)CS[C@H]12)c1ccco1 [CEFUROXIME]
Assay Metric: MIC90
Value Measured: 8

Just for reference, ChEMBL document CHEMBL1212764 is where these values come from.
